# target_desc: Serine/threonine-protein kinase PAK 4 (Homo sapiens) (UniProt O96013)
# Sequence (O96013 whole entry, looked up): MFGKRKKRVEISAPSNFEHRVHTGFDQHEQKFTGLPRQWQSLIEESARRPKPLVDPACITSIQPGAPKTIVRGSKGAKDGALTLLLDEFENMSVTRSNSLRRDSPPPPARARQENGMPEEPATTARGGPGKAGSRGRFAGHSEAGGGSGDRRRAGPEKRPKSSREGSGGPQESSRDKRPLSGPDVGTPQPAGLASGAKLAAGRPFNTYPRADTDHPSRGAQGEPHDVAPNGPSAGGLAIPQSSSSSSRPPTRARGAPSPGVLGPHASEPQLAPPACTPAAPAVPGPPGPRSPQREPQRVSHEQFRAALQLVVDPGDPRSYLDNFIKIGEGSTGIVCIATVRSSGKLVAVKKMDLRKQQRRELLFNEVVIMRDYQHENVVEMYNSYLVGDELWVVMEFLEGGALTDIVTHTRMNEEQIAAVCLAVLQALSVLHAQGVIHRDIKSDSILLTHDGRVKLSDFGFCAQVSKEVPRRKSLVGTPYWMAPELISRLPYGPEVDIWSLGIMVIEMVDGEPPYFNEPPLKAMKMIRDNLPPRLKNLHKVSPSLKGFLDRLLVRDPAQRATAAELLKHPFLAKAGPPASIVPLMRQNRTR
# protocol_conditions: at 10 µM
So I've got a bunch of compounds here, and I need their residual activity values.
One number for each entry, in %.

Supply reported residual activity belonging to this compound: CC#CC(=O)Nc1cc2c(Nc3ccc(F)c(Cl)c3)ncnc2cn1
91

Supply reported residual activity belonging to this compound: Nc1n[nH]c2nnc(-c3c(-c4ccccc4)nn4ccccc34)cc12
90

Supply reported residual activity belonging to this compound: O=C(O)c1ccc2c3c1cccc3c(=O)n1c3ccccc3nc21
98

Supply reported residual activity belonging to this compound: Nc1nc(Nc2ccc(S(N)(=O)=O)cc2)nn1C(=S)Nc1c(F)cccc1F
0

Query compound follows.
Supply reported residual activity belonging to this compound: Cn1nc2c3c(cccc31)C(=O)c1ccccc1-2
87

This collection of values is drawn from ChEMBL document CHEMBL2218924.
